Numbers sourced from ChEMBL document CHEMBL4270565.

# measurement.protocol: Cmax in ICR mouse at 50 mg/kg, po administered as single dose by HPLC analysis
# Assay type: ADME, organism-based
# Parameters: dose 50 mg/kg, route oral
# study.conditions: in vivo
endpoint: Cmax (µg/mL)
Give the value, in units of µg/mL, as a plain number.

Guide cases for Cmax, answers given:
>  <compound>
CO/N=C1\C(=O)N(CCCN2CCN(c3cc4c(cc3F)c(=O)c(C(=O)O)cn4C3CC3)CC2)c2ccc(C)cc21

>  <endpoint>
Cmax

>  <test.value>
0.832

$$$$
>  <compound>
Cc1ccc2c(c1)C(=O)C(=O)N2CCCN1CCN(c2cc3c(cc2F)c(=O)c(C(=O)O)cn3C2CC2)CC1

>  <endpoint>
Cmax

>  <test.value>
1.23

$$$$

[ask] Can you share its Cmax? I mean this compound: O=C(O)c1cn(C2CC2)c2cc(N3CCNCC3)c(F)cc2c1=O [CIPROFLOXACIN]
[reply] 3.13

---

# MIC90 annotations
# Tested on: Pseudomonas aeruginosa
# measurement.protocol: Antibacterial activity against Pseudomonas aeruginosa ATCC 27853 after 18 to 24 hrs by two-fold serial dilution method
# Format: functional
Give the value, in units of µg/mL, as a plain number.

>  <molecule>
O=C1C(=O)N(CCCN2CCN(c3cc4c(cc3F)c(=O)c(C(=O)O)cn4C3CC3)CC2)c2ccccc21

>  <endpoint>
MIC90

>  <readout.units>
µg/mL

>  <test.value>
1

$$$$

[ask] Can you share its MIC90? I mean this molecule: `CO/N=C1\C(=O)N(CCCN2CCN(c3cc4c(cc3F)c(=O)c(C(=O)OCCCN3C(=O)/C(=N/OC)c5ccccc53)cn4C3CC3)CC2)c2ccccc21`
[reply] 64

---

# Test system: Morganella morganii
# measurement.protocol: Antibacterial activity against Morganella morganii ATCC 25830 after 18 to 24 hrs by two-fold serial dilution method
# Type: functional
endpoint: MIC90

Guide cases for MIC90, answers given:
>  <test.smiles>
O=C1C(=O)N(CCCOC(=O)c2cn(C3CC3)c3cc(N4CCN(CCCN5C(=O)C(=O)c6ccccc65)CC4)c(F)cc3c2=O)c2ccccc21

>  <assayed.system>
Morganella morganii

>  <endpoint>
MIC90

>  <test.value>
64 µg/mL

$$$$
>  <test.smiles>
CCO/N=C1\C(=O)N(CCCN2CCN(c3cc4c(cc3F)c(=O)c(C(=O)O)cn4C3CC3)CC2)c2ccc(C)cc21

>  <assayed.system>
Morganella morganii

>  <endpoint>
MIC90

>  <test.value>
≤ 0.03 µg/mL

$$$$

Now consider a different molecule.
[ask] Can you share its MIC90? I mean this molecule: `CO/N=C1\C(=O)N(CCCN2CCN(c3cc4c(cc3F)c(=O)c(C(=O)O)cn4C3CC3)CC2)c2ccccc21`
[reply] ≤ 0.03 µg/mL

---

# MIC90 annotations
# Test system: Acinetobacter calcoaceticus
# measurement.protocol: Antibacterial activity against Acinetobacter calcoaceticus ATCC 19606 after 18 to 24 hrs by two-fold serial dilution method
# Type: functional
Give the value, in units of µg/mL, as a plain number.

Guide cases for MIC90, answers given:
>  <compound>
Cc1ccc2c(c1)C(=O)C(=O)N2CCCN1CCN(c2cc3c(cc2F)c(=O)c(C(=O)O)cn3C2CC2)CC1

>  <readout.units>
µg/mL

>  <MIC90>
0.25

$$$$
>  <compound>
O=C(O)c1cn(C2CC2)c2cc(N3CCNCC3)c(F)cc2c1=O [CIPROFLOXACIN]

>  <readout.units>
µg/mL

>  <MIC90>
0.5

$$$$
>  <compound>
CCO/N=C1\C(=O)N(CCCN2CCN(c3cc4c(cc3F)c(=O)c(C(=O)O)cn4C3CC3)CC2)c2ccccc21

>  <readout.units>
µg/mL

>  <MIC90>
1

$$$$

[ask] Can you share its MIC90? I mean this compound: `CO/N=C1\C(=O)N(CCCN2CCN(c3cc4c(cc3F)c(=O)c(C(=O)OCCCN3C(=O)/C(=N/OC)c5cc(C)ccc53)cn4C3CC3)CC2)c2ccc(C)cc21`
[reply] 64

[ask] Now consider `CO/N=C1\C(=O)N(CCCN2CCN(c3cc4c(cc3F)c(=O)c(C(=O)O)cn4C3CC3)CC2)c2ccc(C)cc21` .
[reply] 0.25

[ask] Now consider `CCO/N=C1\C(=O)N(CCCN2CCN(c3cc4c(cc3F)c(=O)c(C(=O)O)cn4C3CC3)CC2)c2ccc(C)cc21` .
[reply] 0.5

[ask] Now consider `CO/N=C1\C(=O)N(CCCN2CCN(c3cc4c(cc3F)c(=O)c(C(=O)O)cn4C3CC3)CC2)c2ccccc21` .
[reply] 0.5

[ask] Now consider C[C@H]1COc2c(N3CCN(C)CC3)c(F)cc3c(=O)c(C(=O)O)cn1c23.C[C@H]1COc2c(N3CCN(C)CC3)c(F)cc3c(=O)c(C(=O)O)cn1c23.O [LEVOFLOXACIN] .
[reply] 0.125

[ask] Now consider `Cc1ccc2c(c1)C(=O)C(=O)N2CCCOC(=O)c1cn(C2CC2)c2cc(N3CCN(CCCN4C(=O)C(=O)c5cc(C)ccc54)CC3)c(F)cc2c1=O` .
[reply] 64

---

# log10 MIC90 annotations
# Tested on: Staphylococcus aureus
# measurement.protocol: Antibacterial activity against methicillin-sensitive Staphylococcus aureus ATCC 29213 after 18 to 24 hrs by two-fold serial dilution method
# Type: functional
In plain terms, each number is the log10 of measured MIC90 in µg/mL.

Guide cases for log10 MIC90, answers given:
>  <test.smiles>
Cc1ccc2c(c1)C(=O)C(=O)N2CCCN1CCN(c2cc3c(cc2F)c(=O)c(C(=O)O)cn3C2CC2)CC1

>  <log10 MIC90>
-0.90

$$$$
>  <test.smiles>
CO/N=C1\C(=O)N(CCCN2CCN(c3cc4c(cc3F)c(=O)c(C(=O)OCCCN3C(=O)/C(=N/OC)c5ccccc53)cn4C3CC3)CC2)c2ccccc21

>  <log10 MIC90>
2.11

$$$$
>  <test.smiles>
CCO/N=C1\C(=O)N(CCCN2CCN(c3cc4c(cc3F)c(=O)c(C(=O)OCCCN3C(=O)/C(=N/OCC)c5ccccc53)cn4C3CC3)CC2)c2ccccc21

>  <log10 MIC90>
2.11

$$$$
>  <test.smiles>
CCO/N=C1\C(=O)N(CCCN2CCN(c3cc4c(cc3F)c(=O)c(C(=O)O)cn4C3CC3)CC2)c2ccccc21

>  <log10 MIC90>
-0.60

$$$$
>  <test.smiles>
Cc1ccc2c(c1)C(=O)C(=O)N2CCCOC(=O)c1cn(C2CC2)c2cc(N3CCN(CCCN4C(=O)C(=O)c5cc(C)ccc54)CC3)c(F)cc2c1=O

>  <log10 MIC90>
1.81

$$$$
>  <test.smiles>
O=C1C(=O)N(CCCOC(=O)c2cn(C3CC3)c3cc(N4CCN(CCCN5C(=O)C(=O)c6ccccc65)CC4)c(F)cc3c2=O)c2ccccc21

>  <log10 MIC90>
2.11

$$$$

[ask] Can you share its log10 MIC90? I mean this compound: `CO/N=C1\C(=O)N(CCCN2CCN(c3cc4c(cc3F)c(=O)c(C(=O)O)cn4C3CC3)CC2)c2ccc(C)cc21`
[reply] -1.22

[ask] Now consider `CO/N=C1\C(=O)N(CCCN2CCN(c3cc4c(cc3F)c(=O)c(C(=O)O)cn4C3CC3)CC2)c2ccccc21` .
[reply] -0.90

[ask] Now consider `C[C@H]1COc2c(N3CCN(C)CC3)c(F)cc3c(=O)c(C(=O)O)cn1c23.C[C@H]1COc2c(N3CCN(C)CC3)c(F)cc3c(=O)c(C(=O)O)cn1c23.O` .
[reply] -0.90

---

# Test system: Enterococcus faecium
# measurement.protocol: Antibacterial activity against Enterococcus faecium 13-7 after 18 to 24 hrs by two-fold serial dilution method
# Type: functional
endpoint: MIC90 (µg/mL)
Give the value, in units of µg/mL, as a plain number.

Guide cases for MIC90, answers given:
>  <test.smiles>
C[C@H]1COc2c(N3CCN(C)CC3)c(F)cc3c(=O)c(C(=O)O)cn1c23.C[C@H]1COc2c(N3CCN(C)CC3)c(F)cc3c(=O)c(C(=O)O)cn1c23.O

>  <MIC90, µg/mL>
64

$$$$
>  <test.smiles>
CCO/N=C1\C(=O)N(CCCN2CCN(c3cc4c(cc3F)c(=O)c(C(=O)O)cn4C3CC3)CC2)c2ccc(C)cc21

>  <MIC90, µg/mL>
32

$$$$

[ask] Can you share its MIC90? I mean this compound: `CCO/N=C1\C(=O)N(CCCN2CCN(c3cc4c(cc3F)c(=O)c(C(=O)O)cn4C3CC3)CC2)c2ccccc21`
[reply] 32

[ask] Now consider `O=C(O)c1cn(C2CC2)c2cc(N3CCNCC3)c(F)cc2c1=O` .
[reply] 128

[ask] Now consider `CO/N=C1\C(=O)N(CCCN2CCN(c3cc4c(cc3F)c(=O)c(C(=O)O)cn4C3CC3)CC2)c2ccccc21` .
[reply] 32

[ask] Now consider `Cc1ccc2c(c1)C(=O)C(=O)N2CCCN1CCN(c2cc3c(cc2F)c(=O)c(C(=O)O)cn3C2CC2)CC1` .
[reply] 32

[ask] Now consider `O=C1C(=O)N(CCCN2CCN(c3cc4c(cc3F)c(=O)c(C(=O)O)cn4C3CC3)CC2)c2ccccc21` .
[reply] 64

[ask] Now consider `CO/N=C1\C(=O)N(CCCN2CCN(c3cc4c(cc3F)c(=O)c(C(=O)O)cn4C3CC3)CC2)c2ccc(C)cc21` .
[reply] 8
